TARGET UNDER TEST: Shiga toxin 1 (Stx1) (Escherichia coli O157:H7) (UniProt P08026)
Sequence (P08026 23-315): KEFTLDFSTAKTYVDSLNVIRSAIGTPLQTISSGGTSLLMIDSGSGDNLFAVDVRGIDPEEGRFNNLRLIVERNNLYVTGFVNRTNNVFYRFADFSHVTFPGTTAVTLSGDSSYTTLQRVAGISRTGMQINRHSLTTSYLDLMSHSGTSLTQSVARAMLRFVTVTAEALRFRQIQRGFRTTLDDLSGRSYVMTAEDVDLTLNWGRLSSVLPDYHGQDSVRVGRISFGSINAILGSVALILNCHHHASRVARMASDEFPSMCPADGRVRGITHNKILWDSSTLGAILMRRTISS
ASSAY DETAILS: dilution ELISA, HRP-anti-E-tag
pEC50: −log10 of the molar value.
REPORTED PROPERTY: pEC50

Prompt line: Param item = G1/D10 heterodimer VNA (designed binder) QVQLVESGGGLVQPGESLRLSCVASASTFSTSLMGWVRQAPGKGLESVAEVRTTGGTFYAKSVAGRFTISRDNAKNTLYLQMNSLKAEDTGVYYCTAGAGPIATRYRGQGTQVTVSSAHHSEDPGGGGSGGGGSGGGGSQVQLVETGGLVQAGGSLRLSCAASGVPFSDYTMAWFRQAPGKEREVVARITWRGGGPYYGNSGNGRFAISRDIAKSMVYLHMDSLKPEDTAVYYCAASRLRPALASMASDYDYWGQGTQVSVSSEPKTPKPQ ; retrieve measured pEC50.
Response line: < 6.00
